Reported EC50 is given for each of the following compounds.
EXPERIMENTAL_SYSTEM: human CB1 receptor (Homo sapiens)
Construct: expressed in transfected cells; host or cells: SK-N-MC cells, stably transfected with pcDNA3 CB-1 (human); semi-purified membrane pellet
PROTOCOL_DETAILS: Functional cell-based assay, CB1 receptor mediated change in CRE β-gal expression (agonist / inverse agonist)
MEASURED_ENDPOINT: EC50 (nM)

- COc1cccc(C2CCCc3c(C(=O)N[C@H](C)c4ccccc4)nn(-c4ccc(Cl)cc4Cl)c32)c1 (stereo partly shown): 36
- CCOC(=O)C1CCc2c(c(C(=O)NC3C4CC5CC(C4)CC3C5)nn2Cc2ccccc2)C1 (stereo not shown): 520
- COc1cccc(C2CCCc3c(C(=O)N[C@H](CCl)c4ccccc4)nn(-c4ccc(Cl)cc4Cl)c32)c1 (stereo partly shown): 46
- CCOC(=O)C1CCCc2c1c(C(=O)NC1C3(C)CCC(C3)C1(C)C)nn2C1CCCCC1 (stereo not shown): 1740

* * *

EXPERIMENTAL_SYSTEM: human CB2 receptor (Homo sapiens)
Sequence (P34972 whole entry): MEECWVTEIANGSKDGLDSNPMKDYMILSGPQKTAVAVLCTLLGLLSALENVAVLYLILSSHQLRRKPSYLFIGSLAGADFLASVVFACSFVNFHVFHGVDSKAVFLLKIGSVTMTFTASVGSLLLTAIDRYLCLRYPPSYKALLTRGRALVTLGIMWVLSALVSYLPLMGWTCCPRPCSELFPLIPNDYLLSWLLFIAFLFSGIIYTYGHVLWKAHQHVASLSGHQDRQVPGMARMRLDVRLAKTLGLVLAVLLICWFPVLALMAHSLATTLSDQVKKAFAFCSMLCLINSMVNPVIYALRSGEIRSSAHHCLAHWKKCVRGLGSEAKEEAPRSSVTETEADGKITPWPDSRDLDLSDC
PROTOCOL_DETAILS: Binding assay, cannabinoid CB2 receptor ([3H]-CP-55,940 displacement)
STATED_CONDITIONS: Cannabinoid CB2 Receptor Binding IC50, human CB2 receptor, SK-N-MC cell membranes, radioligand CP-55,940 0.2 nM
pIC50: −log10 of the molar value.
Reported pIC50 is given for each of the following compounds.
MEASURED_ENDPOINT: pIC50

* CN(C)C(=O)C1CCc2c(c(C(=O)NC3C4(C)CCC(C4)C3(C)C)nn2C2CCCCC2)C1 (centres unmarked) | 5.85
* O=C(NCC1CCCCC1)c1nn(C2CCCCC2)c2c1CCCC2 | 7.70
* COC(=O)C(Cc1ccc(OCc2ccccc2)cc1)NC(=O)c1nn(Cc2ccccc2)c2c1CCCC2 (centres unmarked) | 6.77
* Cc1ccc(Cn2nc(C(=O)NC3C4(C)CCC(C4)C3(C)C)c3c2CCCC3)cc1 (centres unmarked) | 8.66
* CCOC(=O)C1CCc2c(c(C(=O)NC3C4CC5CC(C4)CC3C5)nn2-c2ccccc2)C1 (centres unmarked) | 6.74
* CCOC(=O)C1CCCc2c1c(C(=O)NCC13CC4CC(CC(C4)C1)C3)nn2Cc1ccccc1 (centres unmarked) | 6.89
* CCOC(=O)[C@H]1C2CCC(C2)[C@H]1NC(=O)c1nn(-c2ccc(Cl)cc2Cl)c2c1CCCC2 (some centres unmarked) | 8.30
* CC(C)(C)OC(=O)C1CCc2c(c(C(=O)NC3C4CC5CC(C4)CC3C5)nn2C2CCCCC2)C1 (centres unmarked) | 6.06

* * *

Reported IC50 is given for each of the following compounds.
EXPERIMENTAL_SYSTEM: human CB1 receptor (Homo sapiens, UniProt P21554)
Construct: expressed in transfected cells; host or cells: SK-N-MC cells, stably transfected with pcDNA3 CB-1 (human); semi-purified membrane pellet
Sequence (P21554 whole entry): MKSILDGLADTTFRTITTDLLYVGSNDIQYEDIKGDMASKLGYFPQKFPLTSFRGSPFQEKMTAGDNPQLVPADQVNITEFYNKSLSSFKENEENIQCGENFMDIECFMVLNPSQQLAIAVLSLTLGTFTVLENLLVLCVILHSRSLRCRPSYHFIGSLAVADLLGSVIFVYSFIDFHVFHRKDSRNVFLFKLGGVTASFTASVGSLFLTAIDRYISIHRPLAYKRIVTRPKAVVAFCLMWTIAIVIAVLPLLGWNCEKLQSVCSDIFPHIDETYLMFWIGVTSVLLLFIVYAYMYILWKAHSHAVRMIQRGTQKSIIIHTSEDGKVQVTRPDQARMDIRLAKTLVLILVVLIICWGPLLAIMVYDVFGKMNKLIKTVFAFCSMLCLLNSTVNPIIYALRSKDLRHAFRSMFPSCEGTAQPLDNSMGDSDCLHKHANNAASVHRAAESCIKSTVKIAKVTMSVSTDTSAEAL
PROTOCOL_DETAILS: biochemical
Type: binding
MEASURED_ENDPOINT: IC50 (µM)

- COC(=O)NC1CCc2c(c(C(=O)NC3C4CC5CC(C4)CC3C5)nn2C2CCCCC2)C1 (stereo not shown) [compound 88]: 2.4
- C[C@H]1C(NC(=O)c2nn(C3CCCCC3)c3c2CCCC3)C[C@@H]2C[C@H]1C2(C)C (stereo partly shown) [compound 252]: 0.04
- CC12CCC(C1)C(C)(C)C2NC(=O)c1nn(C2CCCCC2)c2c1CC(=O)CC2 (stereo not shown) [Cpd 96]: 9.5
- CCOC(=O)C1CCc2c(c(C(=O)NC(C)C34CC5CC(CC(C5)C3)C4)nn2Cc2ccccc2)C1 (stereo not shown) [compound 148]: 0.013
